B1: INTS4 (parent)
chain: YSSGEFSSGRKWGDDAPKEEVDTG

- Variants of: B1
- measurement_description: protein stability index of a GFP-peptide fusion (GPS, HEK-293T) (PSI 1-6); higher = more stable;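 note: lentivirally expressed fusions sorted by FACS into six bins by GFP to DsRed ratio, PSI derived from sequencing read proportions per bin multiplied by bin number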
- condition_label: c terminus: a fixed tail appended
Decision: protein stability index compared against 3; not below it gives true, below it gives false.

W12E: true
G4L: true
D15W: false
G24F: false
G4E: true

Incoming: Tell me whether protein stability index is at least 3 here: Y1S
Outgoing: true

Incoming: Another variant to check: F6T
Outgoing: true

Incoming: Same read-out for G4C ?
Outgoing: true

Incoming: Entry to check: S7L
Outgoing: false

Incoming: D22Y ?
Outgoing: false
